System: ARS
runDescription: 1D CPMG ligand-observed NMR
assayContext: absence vs presence of ARS

>  <compound>
Nc1ncnc2c1ncn2[C@@H]1O[C@H](COP(=O)(O)OP(=O)(O)OP(=O)(O)O)[C@@H](O)[C@H]1O [ATP]

>  <binding to ARS by 1D CPMG>
non-binding

$$$$
>  <compound>
O=C(O)[C@H]1O[C@@H](Oc2cc(O)c3c(=O)cc(-c4ccc(O)c(O)c4)oc3c2)[C@H](O)[C@@H](O)[C@@H]1O [NC4, luteolin-7-glucuronide]

>  <binding to ARS by 1D CPMG>
definite binding

$$$$
>  <compound>
O=C(/C=C/c1ccc(O)c(O)c1)O[C@H]1[C@H](O)C[C@](O)(C(=O)O)C[C@H]1OC(=O)/C=C/c1ccc(O)c(O)c1 [NC2, 4,5-dicaffeoylquinic acid]

>  <binding to ARS by 1D CPMG>
definite binding

$$$$
>  <compound>
NCCCS(=O)(=O)O [tramiprosate]

>  <binding to ARS by 1D CPMG>
non-binding

$$$$
>  <compound>
Oc1cc(O)c2c(c1)O[C@H](c1ccc(O)c(O)c1)[C@H](O)C2 [(−)-epicatechin]

>  <binding to ARS by 1D CPMG>
non-binding

$$$$
>  <compound>
O=C(/C=C/c1ccc(O)c(O)c1)O[C@@H]1[C@H](O)C[C@@](O)(C(=O)O)C[C@H]1OC(=O)/C=C/c1ccc(O)c(O)c1 [NC1, 3,4-dicaffeoylquinic acid]

>  <binding to ARS by 1D CPMG>
definite binding

$$$$

These measurements were taken from patent US12560588B2.
